STUDY SYSTEM: Schistosoma mansoni thioredoxin glutathione reductase (TGR)
METHOD SUMMARY: qHTS Assay for the Inhibitors of Schistosoma Mansoni Peroxiredoxins; also: nearly all actives have a fitted effect of over 60% in size
EXPERIMENTAL CONTEXT: purified TGR, DTNB reduction, TNB absorbance 405 nm; series mostly up to 114 µM
Screen size: about 360,000 compounds; about 11,000 (3.1%) were called active. Another 4% or so got no clear call; they are omitted. Calls follow the shape of the dose curve; as a rule, active = well fitted inhibition curve with a large enough effect; inconclusive = small, poorly fitted or top-dose-only effect; inactive = no such curve, though single readings can be large or run the other way. What follows is part of a selection rich in actives, with near analogues and random picks from the rest.
Can you answer with just one of these options? active, inactive

Inquiry: In this assay, the call recorded for O=C(CSc1nc(-c2ccccc2)cs1)Nc1cccc([N+](=O)[O-])c1 was what?
Reply text: inactive

Inquiry: What call does the record list for O=c1cc(CO)oc(C(Nc2cccc([N+](=O)[O-])c2)c2ccccn2)c1O (stereo not given) ?
Reply text: active

Inquiry: Could you please tell me the result logged for CC(OC(=O)c1ccc2noc(-c3ccccc3)c2c1)C(N)=O (stereo not given) in this assay?
Reply text: active

Inquiry: Could you check what this test reported for Cn1c(=O)c2c(ncn2CC(=O)Nc2cccc(C(F)(F)F)c2)n(C)c1=O ?
Reply text: inactive

Inquiry: Can you look up the reported call for Cc1ccc(S(=O)(=O)N2CCC(C(=O)OCC(=O)N3CC(=O)Nc4ccccc43)CC2)cc1 for me?
Reply text: inactive

Inquiry: Hi, sorry to bother you, what did the test record for Cc1ccc(CN2COc3cc(C)c4c(oc(=O)c5ccccc54)c3C2)cc1 ?
Reply text: inactive

Inquiry: What did this assay record as the result for COc1cccc(NC(=O)COC(=O)CCOc2ccccc2OC)c1 ?
Reply text: inactive

Inquiry: Please state the recorded outcome for this compound: N#C/C(=C\c1cccc(F)c1)c1nc(-c2cc3c(ccc4ccccc43)oc2=O)cs1
Reply text: inactive

Inquiry: Just curious, what result did COc1cc(OC)c(C(=O)OCC(=O)N2CC(=O)Nc3ccccc32)cc1OC get here?
Reply text: inactive

Inquiry: # outcome recorded in this test, key = Cc1ccccc1CNC(=O)CCc1cn(Cc2ccccc2C)c2ccccc12
Reply text: inactive

---

STUDY SYSTEM: Schistosoma mansoni thioredoxin glutathione reductase (TGR) (UniProt Q962Y6)
METHOD SUMMARY: qHTS Assay for the Inhibitors of Schistosoma Mansoni Peroxiredoxins; also: nearly all actives have a fitted effect of over 60% in size
EXPERIMENTAL CONTEXT: purified TGR, DTNB reduction, TNB absorbance 405 nm; series mostly up to 114 µM
Excerpt: Schistosomiasis is a major neglected tropical disease that currently affects over 200 million. It is caused by different species of flatworms, such as Schistosoma mansoni. […] In addition, the fluorescence assay was also subject to fluorescence interference from compound library members. […] The assay followed the reduction of 5, 5'-dithiobis (2-nitrobenzoic acid) (DTNB) (Ellman's reagent) by NADPH and measured the increase in absorbance at 412 nm of the reaction product, TNB. […]
Screen size: about 360,000 compounds; about 11,000 (3.1%) were called active. Roughly 4% stayed inconclusive and do not appear here. Calls come from the whole dose curve; as a rule, active = well fitted inhibition curve with a large enough effect; inconclusive = small, poorly fitted or top-dose-only effect; inactive = no such curve, though single readings can be large or run the other way. Only a selection was taken, and actives are over-represented in it overall.
Choose one outcome from this list and give only that: active, inactive

Inquiry: Look up the recorded call for Cc1nc2ccn(Cc3cccnc3)c(=O)c2cc1C(=O)N1CCN(c2ccccc2F)CC1 in this test.
Reply text: inactive

Inquiry: In this assay, the call recorded for CC(C)c1cc(CN2CCOCC2)cc(C(C)C)c1O was what?
Reply text: active

Inquiry: Outcome? Cc1ccc2c(=O)c(C(=O)c3cccc(Cl)c3)cn(CC(=O)NCc3ccccc3)c2n1
Reply text: inactive

Inquiry: For this compound, state the assay outcome: CN1CCN(C2(CNC(=O)COc3ccc(C(C)(C)C)cc3)CCCCC2)CC1
Reply text: inactive

Inquiry: Which outcome was assigned to Cc1ccc(CNC(=O)CCCNC(=O)c2ccc(Cl)cc2)n1C in this test?
Reply text: active

Inquiry: How did this test come out for COc1ccc(NC(=S)Nc2ccccc2Cl)cn1 ?
Reply text: active

Inquiry: Give the logged outcome of this assay for the following compound: Cc1cc(O)c(C(c2ccccc2)N2CCN(c3ccccc3F)CC2)c(=O)n1Cc1ccco1 (stereo not drawn)
Reply text: active

Inquiry: Recorded call for COc1ccccc1NC(=O)c1cc(C2CC2)nc2c1c(C)nn2-c1ccc(C)cc1 ?
Reply text: inactive

Cited source: PubChem BioAssay AID485364
